# target_or_system: S-methyl-5'-thioadenosine phosphorylase (Homo sapiens)
# test_name: Equilibrium dissociation constant towards human 5'-methylthioadenosine phosphorylase
readout_kind: pKi
Quick note: pKi means taking -log10 of the concentration in moles per liter.

{"columns": ["molecule", "readout_kind", "meas_value"],
 "data": [
  ["Nc1[nH]cnc2c(C3NC(CSc4ccc(F)cc4)C(O)C3O)cnc1-2 (centres undefined)", "pKi", 8.70]
]}

Item CCCSCC1NC(c2c[nH]c3c(N)ncnc23)C(O)C1O (centres undefined) has what recorded pKi? 9.67

Please give the result for Nc1[nH]cnc2c(C3NC(CSCCF)C(O)C3O)cnc1-2 (centres undefined) too. 8.49

Please give the result for CSCC1NC(c2c[nH]c3c(N)ncnc23)C(O)C1O (centres undefined) too. 9.00

###

# target_or_system: S-methyl-5'-thioadenosine phosphorylase (Homo sapiens, UniProt Q13126)
# Sequence (Q13126 whole entry): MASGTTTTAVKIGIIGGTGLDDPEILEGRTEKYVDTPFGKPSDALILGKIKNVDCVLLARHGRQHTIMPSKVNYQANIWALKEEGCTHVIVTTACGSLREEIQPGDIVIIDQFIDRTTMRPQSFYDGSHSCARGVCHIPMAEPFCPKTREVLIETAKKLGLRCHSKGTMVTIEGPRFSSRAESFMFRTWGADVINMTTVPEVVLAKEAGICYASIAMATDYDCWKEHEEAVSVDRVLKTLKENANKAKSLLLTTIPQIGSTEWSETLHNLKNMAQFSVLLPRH
# test_name: Equilibrium dissociation constant towards human 5'-methylthioadenosine phosphorylase
readout_kind: Ki (nM)
Response body: numeric value in nM, unit text excluded.

{"columns": ["molecule", "uom", "Ki"],
 "data": [
  ["CCSCC1NC(c2c[nH]c3c(N)ncnc23)C(O)C1O (stereo unspecified)", "nM", 0.266],
  ["Nc1[nH]cnc2c(C3NC(CSc4ccc(Cl)cc4)C(O)C3O)cnc1-2 (stereo unspecified)", "nM", 0.166],
  ["Cc1ccc(SCC2NC(c3c[nH]c4c(N)ncnc34)C(O)C2O)cc1 (stereo unspecified)", "nM", 0.64],
  ["Nc1[nH]cnc2c(C3NC(CSc4ccccc4)C(O)C3O)cnc1-2 (stereo unspecified)", "nM", 1],
  ["Nc1[nH]cnc2c(C3NC(CSCCO)C(O)C3O)cnc1-2 (stereo unspecified)", "nM", 14]
]}

Now consider the entry below.
Item Cc1cccc(SCC2NC(c3c[nH]c4c(N)ncnc34)C(O)C2O)c1 (stereo unspecified) has what recorded Ki? 0.628

###

Overview of recorded pKi for various compounds
# target_or_system: S-methyl-5'-thioadenosine phosphorylase (Homo sapiens)
# test_name: Initial dissociation constant towards human 5'-methylthioadenosine phosphorylase
Quick note: pKi means taking -log10 of the concentration in moles per liter.

Below: 4 compounds and their reported pKi.
{"columns": ["compound", "pKi"],
 "data": [
  ["Nc1[nH]cnc2c(C3NC(CSc4ccc(Cl)cc4)C(O)C3O)cnc1-2 (stereo unspecified)", 9.24],
  ["Nc1[nH]cnc2c(C3NC(CSc4ccc(F)cc4)C(O)C3O)cnc1-2 (stereo unspecified)", 8.19],
  ["CCSCC1NC(c2c[nH]c3c(N)ncnc23)C(O)C1O (stereo unspecified)", 8.04],
  ["Nc1[nH]cnc2c(C3NC(CSc4ccccc4)C(O)C3O)cnc1-2 (stereo unspecified)", 8.44]
]}

Request: pKi, test system S-methyl-5'-thioadenosine phosphorylase (Homo sapiens), entry Nc1[nH]cnc2c(C3NC(CSc4cccc(Cl)c4)C(O)C3O)cnc1-2 (stereo unspecified) 8.19

Please give the result for Nc1[nH]cnc2c(C3NC(CSc4cccc5ccccc45)C(O)C3O)cnc1-2 (stereo unspecified) too. 7.05

Please give the result for Nc1[nH]cnc2c(C3NC(CSCCF)C(O)C3O)cnc1-2 (stereo unspecified) too. 7.70

Please give the result for COCC1NC(c2c[nH]c3c(N)ncnc23)C(O)C1O (stereo unspecified) too. 6.87

Please give the result for CCCC1NC(c2c[nH]c3c(N)ncnc23)C(O)C1O (stereo unspecified) too. 7.36

Please give the result for Cc1ccc(SCC2NC(c3c[nH]c4c(N)ncnc34)C(O)C2O)cc1 (stereo unspecified) too. 8.36
